# TGI per entry
Tested on: DU-145 prostate
Assay: NCI tumour cell line growth inhibition, 48 h
ASSAY READOUT: TGI

[[record]]
molecule = "COCOc1cc(OC)ccc1C=O"
assay_readout = "TGI"
observed_result = "> 100 µM"

[[record]]
molecule = "COC(=O)CCCc1ccc2c(c1)CCC2"
assay_readout = "TGI"
observed_result = "> 100 µM"

[[record]]
molecule = "Cc1cn2c(/C=C3/C(=O)Nc4ccccc43)c(-c3ccccc3)nc2s1"
assay_readout = "TGI"
observed_result = "> 100 µM"

[[record]]
molecule = "CC(=O)c1nc2ccccc2n1CC(=O)c1ccc([N+](=O)[O-])cc1"
assay_readout = "TGI"
observed_result = "> 100 µM"

[[record]]
molecule = "O=c1c2ccccc2nc(-c2ccc(Cl)cc2)n1O"
assay_readout = "TGI"
observed_result = "> 100 µM"

[[record]]
molecule = "NC(=O)NC(=O)CI"
assay_readout = "TGI"
observed_result = "32.3 µM"

[[record]]
molecule = "COc1ccc(NS(=O)C2CCCCC2)cc1 (configuration not stated)"
assay_readout = "TGI"
observed_result = "> 100 µM"

[[record]]
molecule = "CN(C)CCn1cc(-c2ccc3c(Nc4ccc(CC(=O)Nc5cccc(F)c5)cc4)ncnc3c2)cn1"
assay_readout = "TGI"
observed_result = "3.51 µM"

[[record]]
molecule = "COc1cc2c(/C=C3\\C(=O)Nc4ccc(Br)cc43)c(Cl)n(C)c2cc1C"
assay_readout = "TGI"
observed_result = "4.36 µM"

[[record]]
molecule = "CC(=O)c1ccc2c(c1)CC1(C2)Cc2cc3c(cc2C1)C(=O)CC3 (configuration not stated)"
assay_readout = "TGI"
observed_result = "25.8 µM"

[[record]]
molecule = "CC1SC(c2cccs2)N(NC(=O)C(O)c2ccccc2)C1=O (configuration not stated)"
assay_readout = "TGI"
observed_result = "> 100 µM"

[[record]]
molecule = "N#CC(C(=O)c1ccccc1F)c1nc2cc(C(F)(F)F)ccc2s1 (configuration not stated)"
assay_readout = "TGI"
observed_result = "> 100 µM"


###

Tested on: NCI-H23 lung
Experiment: NCI tumour cell line growth inhibition, 48 h; in the data active means GI50 below about 0.43 µM; inactive means the rest
Outcome codes: 1.0 for active, 0.0 for inactive

[[record]]
compound = "COc1ccc(-n2c(N)c(C(=O)NCCN3CCOCC3)c3nc4ccccc4nc32)cc1OC"
class_assignment = 0.0

[[record]]
compound = "CN1CCN(c2ccc3nc(-c4ccc(OCCCN5C(=O)c6cccc7cccc(c67)C5=O)cc4)[nH]c3c2)CC1"
class_assignment = 0.0

[[record]]
compound = "Cn1c2ccccc2c2c3c(c4c5ccccc5n(CCCCCC#N)c4c21)C(=O)N(O)C3=O"
class_assignment = 0.0

[[record]]
compound = "CN(C)/[N+]([O-])=N/Oc1cc(Nc2ccc(C(=O)O)cc2)c([N+](=O)[O-])cc1[N+](=O)[O-]"
class_assignment = 0.0

[[record]]
compound = "COc1cc(-c2ccc(-c3ccc(C(=N)N)s3)s2)cc(OC)c1OC"
class_assignment = 0.0

[[record]]
compound = "CN(C)CCn1cc(-c2ccc3c(Nc4ccc(CC(=O)Nc5cccc(F)c5)cc4)ncnc3c2)cn1"
class_assignment = 0.0

[[record]]
compound = "COC(=O)c1c(-c2ccccc2)csc1NC(=O)c1c(-c2ccccc2)noc1C"
class_assignment = 0.0

[[record]]
compound = "CC1=C(C(=O)Nc2ccc(F)c(Cl)c2)C(c2cccc(Cl)c2)NC(=O)N1 (stereo not given)"
class_assignment = 0.0

[[record]]
compound = "COc1cc2c(/C=C3\\C(=O)Nc4ccc(Br)cc43)c(Cl)n(C)c2cc1C"
class_assignment = 0.0

[[record]]
compound = "CSC(=S)N/N=C(\\C)c1ccccn1"
class_assignment = 1.0

